Tested on: C. glabrata NCPF8018
Assay: Candida panel MIC, serial dilution in 96-well plates
Assay type: cell-based, Candida glabrata
Settings: Nakaseomyces glabratus, NCPF8018, read-out: MIC C. Glabrata NCPF8018
Experimental: The minimum inhibitory concentration of test compounds were determined in a panel of Candida species (see Table 4 below), using the a serial dilution method in 96-well plates using the following protocol. Starter cultures of fungal strains to be tested were grown in 3 mL of RPMI 2% glucose media incubated at 37° C. with shaking at 200 rpm overnight. […] A plate reader was used to measure growth in each well at OD530 nm and the MIC was determined for each test compound. […]
As shown below, each of these compounds has a reported MIC value.
Reply with just the number (in µg/mL).

Sample records with MIC:
OC(CN1CCCC(Nc2ccc(Cc3ccccc3)cc2)CC1)(Cn1cncn1)c1ccc(F)cc1F (stereo not drawn) [Example 9] = 0.125
OC(CN1CCC(N2CCC(Nc3ccc(Cc4ccccc4)cc3)CC2)CC1)(Cn1cncn1)c1ccc(F)cc1F (stereo not drawn) [Example 12] = 0.25
OC(CN1CCC(Nc2ccc(OCc3ccccc3)cc2)CC1)(Cn1cncn1)c1ccc(F)cc1F (stereo not drawn) [Example 90] = 0.0625

# next compound below
Ask | What value of MIC has been recorded for this entry: COc1ccc(Oc2ccc(NC3CCN(CC(O)(Cn4cncn4)c4ccc(F)cc4F)CC3)cc2)cc1 (stereo not drawn) [Example 86]
Reply | 0.5

----------
As shown below, each of these compounds has a reported MIC value.
tested on: C. glabrata NCPF8018; assay: Candida panel MIC, serial dilution in 96-well plates; type: cell-based, Candida glabrata; details: Nakaseomyces glabratus, NCPF8018, read-out: MIC C. Glabrata NCPF8018
Reply with just the number (in µg/mL).

Sample records with MIC:
OC(CN1CCC2(CCN(c3ncc(F)cn3)CC2)C1)(Cn1cncn1)c1ccc(F)cc1F (stereo not shown) = 0.25
C[C@@H](c1ncncc1F)[C@](O)(Cn1cncn1)c1ccc(F)cc1F [Voriconazole, voriconazole, reference compound] = 1
CC(C)COc1ccc(NC2CCN(CC(O)(Cn3cncn3)c3ccc(F)cc3F)CC2)cc1 (stereo not shown) = 0.06

Ask | What value of MIC has been recorded for this entry: Cc1ccc(-c2ccc(NC3CCN(CC(O)(Cn4cncn4)c4ccc(F)cc4F)CC3)cc2)cc1 (stereo not shown)
Reply | 0.125

----------
As shown below, each of these compounds has a reported MIC value.
tested on: Candida auris TDG2512; assay: Candida panel MIC, serial dilution in 96-well plates; type: cell-based; conditions: Candidozyma auris, TDG2512; Table 4, extended panel; 24 hours, ≥50% inhibition; read-out: MIC Candida auris TDG2512
Reply with just the number (in µg/mL).

OC(CN1CCC(Nc2ccc(OCCN3CCCC3)cc2)CC1)(Cn1cncn1)c1ccc(F)cc1F (stereo not shown) [Example 82] = 1

# next compound below
Ask | What value of MIC has been recorded for this entry: COCCOc1ccc(NC2CCN(CC(O)(Cn3cncn3)c3ccc(F)cc3F)CC2)cc1 (stereo not shown) [Example 96]
Reply | 4

----------
A set of compounds tested on C. albicans 3881, with measured MIC:
Reply with just the number (in µg/mL).

Sample records with MIC:
C[C@@H](c1ncncc1F)[C@](O)(Cn1cncn1)c1ccc(F)cc1F [Voriconazole, voriconazole, reference compound] = 0.25
OC(CN1CCC(N2CCC(Nc3ccc(Cc4ccccc4)cc3)CC2)CC1)(Cn1cncn1)c1ccc(F)cc1F (stereo not shown) = 0.0625
N#Cc1ccc(-c2ccc(NC3CCN(CC(O)(Cn4cncn4)c4ccc(F)cc4F)CC3)cc2)cc1 (stereo not shown) = 0.0156

# next compound below
Ask | What value of MIC has been recorded for this entry: OC(CN1CCC(Nc2ccc(OCCN3CCOCC3)cc2)CC1)(Cn1cncn1)c1ccc(F)cc1F (stereo not shown)
Reply | 0.5
